Protocol Notes: Mouse pharmacokinetic study, intravenous dosing
Assay type: in vivo
Assay Setup: male, C57BL/6, mouse, iv; plasma, 10 mg/kg i.v., time 0.25 h; read-out: Parent compound concentration following intravenous administration
Overview of reported concentration at 0.25 h across a group of compounds:
Enter your answer as a number in ng/mL; do not include the unit.

Compound	Quantity Measured	Experimental Value
C=C(CC(=O)OC1CCCCCCC1)C(=O)OC(C)c1nnn[nH]1 (stereo not shown)	concentration at 0.25 h	1950

Qu. Item C=C(CC(=O)OC1CCCCCCC1)C(=O)OCCC(=O)O has what recorded concentration at 0.25 h?
Ans. 2780

Qu. I am curious: what concentration at 0.25 h value has been reported for C=C(CC(=O)OC(CCCC)CCCC)C(=O)OCC(=O)O ?
Ans. 6110

* * *

Protocol Notes: Mouse pharmacokinetic study, oral administration
Type: in vivo
Assay Setup: male, C57BL/6, mouse, plasma, po, 100 mg/kg, plasma, male C57BL/6 mice, oral gavage 100 mg/kg, 0.083 h; read-out: Parent compound concentrations following oral administration, Time 0.083 h
Quantity Measured: concentration at 0.083 h (µg/mL)
Numbers only here, please. The scale is µg/mL.

Qu. // lookup concentration at 0.083 h for C=C(CC(=O)O[C@H](CC)CCCCC)C(=O)OCC(=O)O
Ans. 67.1

Qu. I would be grateful if you could share the reported concentration at 0.083 h for C=C(CC(=O)OC(C)(C)CCCCC)C(=O)OCC(=O)O .
Ans. 52.9

Qu. Name the recorded concentration at 0.083 h for C=C(CC(=O)O[C@H](C)CCCCCC)C(=O)OCCC(=O)O .
Ans. 53.9

* * *

Recorded concentration at 2 h values for a group of compounds are listed next.
Protocol Notes: Mouse pharmacokinetic study, intravenous dosing
Format: in vivo
Assay Setup: male, C57BL/6, mouse, iv; plasma, 10 mg/kg i.v., time 2 h; read-out: Parent compound concentration following intravenous administration

Qu. For the compound C=C(CC(=O)OCCCCCC)C(=O)OCC(=O)NS(=O)(=O)N(C)C , what concentration at 2 h is on record?
Ans. < 0.8 ng/mL

Qu. Item under review: C=C(CC(=O)O[C@H](C)CCCCCC)C(=O)OCCC(=O)O . Reported concentration at 2 h?
Ans. 200 ng/mL

Qu. Request the reported concentration at 2 h associated with C=C(CC(=O)OC1CCCCCCC1)C(=O)OCc1nnn[nH]1
Ans. 12 ng/mL

Qu. Please give the measured concentration at 2 h for this compound: C=C(CC(=O)OC1C(C)(C)CC1(C)C)C(=O)OCC(=O)O
Ans. 2.5 ng/mL

* * *

Protocol Notes: Mouse pharmacokinetic study, oral administration
Format: in vivo
Assay Setup: male, C57BL/6, mouse, plasma, po, 100 mg/kg, plasma, male C57BL/6 mice, oral gavage 100 mg/kg, 2 h; read-out: Parent compound concentrations following oral administration, Time 2 h
Quantity Measured: log10 of concentration at 2 h (log10 of the value in ng/mL)
Reminder: these figures are log10 of reported concentration at 2 h, in ng/mL before transformation.

Given Smiles	log10 of concentration at 2 h
C=C(CC(=O)OC1CCCCCCC1)C(=O)OCc1nnn[nH]1	2.93

Qu. log10 of concentration at 2 h for C=C(CC(=O)OC1CCCCC1)C(=O)OCc1nnn[nH]1 ?
Ans. 2.89

Qu. Field request: log10 of concentration at 2 h | item: C=C(CC(=O)OC1CC2(CCC2)C1)C(=O)OCC(=O)O
Ans. 2.91

Qu. Can you look up the measured log10 of concentration at 2 h of C=C(CC(=O)OCCCCCCCC)C(=O)OCC(=O)O for me?
Ans. 2.05

Qu. Entry under review: C=C(CC(=O)O[C@@H](CCCCCC)C(F)(F)F)C(=O)OCC(=O)O . Reported log10 of concentration at 2 h?
Ans. 3.73

Qu. I have this compound here, C=C(CC(=O)OCCCCCC)C(=O)OCC(=O)O , and I need its recorded log10 of concentration at 2 h.
Ans. 3.33

Qu. Please report the recorded log10 of concentration at 2 h for C=C(CC(=O)OC(CCCC)CCCC)C(=O)OCC(=O)O .
Ans. 3.15
